B1: MATN2 (parent)
chain: VNVPGSFVCQCYSGYALAEDGKRC

Variants of: B1
Test: protein stability index of a GFP-peptide fusion (GPS, HEK-293T) (PSI 1-6); higher = more stable;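 note: lentivirally expressed fusions sorted by FACS into six bins by GFP to DsRed ratio, PSI derived from sequencing read proportions per bin multiplied by bin number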
Details: c terminus: a fixed tail appended
quantity_measured: protein stability index
Number only, no unit.

# protein stability index (variant: S13E ) is 2.1

# protein stability index (variant: S6C ) is 2.05

# protein stability index (variant: Q10A ) is 1.56

# protein stability index (variant: N2L ) is 2.28

# protein stability index (variant: Y12N ) is 1.98

# protein stability index (variant: R23W ) is 1.64

# protein stability index (variant: C9T ) is 2.52

# protein stability index (variant: C9D ) is 4.36

# protein stability index (variant: D20E ) is 1.85

# protein stability index (variant: D20T ) is 2.12

# protein stability index (variant: Y12T ) is 2.95

# protein stability index (variant: V8K ) is 2.74

# protein stability index (variant: Y12E ) is 3.47

# protein stability index (variant: G14M ) is 2.52

# protein stability index (variant: D20H ) is 2.1

# protein stability index (variant: Y12P ) is 3.02

# protein stability index (variant: L17I ) is 1.67

# protein stability index (variant: Y15L ) is 2.19

# protein stability index (variant: D20W ) is 1.57

# protein stability index (variant: F7A ) is 2.85

# protein stability index (variant: Y15Q ) is 1.98

# protein stability index (variant: S13T ) is 2.34

# protein stability index (variant: S13V ) is 1.32

# protein stability index (variant: R23A ) is 2.16

# protein stability index (variant: E19Y ) is 1.7

# protein stability index (variant: F7P ) is 3.13

# protein stability index (variant: A18D ) is 2.36

# protein stability index (variant: F7N ) is 1.06

# protein stability index (variant: N2A ) is 1.9

# protein stability index (variant: V1Y ) is 2.85

# protein stability index (variant: G21S ) is 2.36

# protein stability index (variant: P4C ) is 2.07

# protein stability index (variant: V1F ) is 3.08

# protein stability index (variant: V8G ) is 1.92

# protein stability index (variant: E19S ) is 1.43

# protein stability index (variant: V8F ) is 1.79

# protein stability index (variant: Y12C ) is 2.87

# protein stability index (variant: D20Q ) is 1.37

# protein stability index (variant: C9N ) is 3.12

# protein stability index (variant: C11K ) is 2.87

# protein stability index (variant: L17Q ) is 2.26

# protein stability index (variant: L17G ) is 2.04

# protein stability index (variant: G5V ) is 1.17

# protein stability index (variant: P4V ) is 2.28

# protein stability index (variant: R23K ) is 2.99

# protein stability index (variant: C24E ) is 1.94

# protein stability index (variant: K22P ) is 2.08

# protein stability index (variant: Q10E ) is 1.55

# protein stability index (variant: Y15D ) is 2.03

# protein stability index (variant: A18M ) is 1.34

# protein stability index (variant: V1H ) is 1.96

# protein stability index (variant: E19N ) is 2.79

# protein stability index (variant: K22H ) is 2.68

# protein stability index (variant: G14R ) is 2.81

# protein stability index (variant: L17M ) is 1.81

# protein stability index (variant: V1D ) is 2.6

# protein stability index (variant: Y15C ) is 2.77

# protein stability index (variant: R23M ) is 2.32

# protein stability index (variant: V1M ) is 1.87

# protein stability index (variant: C11M ) is 1.86

# protein stability index (variant: D20I ) is 2.81

# protein stability index (variant: Y15M ) is 2.19

# protein stability index (variant: V8L ) is 2.35

# protein stability index (variant: G21L ) is 2.7

# protein stability index (variant: A18G ) is 1.82

# protein stability index (variant: C11W ) is 2.05

# protein stability index (variant: A16Y ) is 1.1

# protein stability index (variant: V8P ) is 2.28

# protein stability index (variant: D20S ) is 2.02

# protein stability index (variant: Y12S ) is 2.64

# protein stability index (variant: G14S ) is 2.44

# protein stability index (variant: V1E ) is 2.59

# protein stability index (variant: C11P ) is 2.42

# protein stability index (variant: S6N ) is 1.43

# protein stability index (variant: S6W ) is 2.04

# protein stability index (variant: V8I ) is 2.21

# protein stability index (variant: S6Q ) is 1.81

# protein stability index (variant: Y12R ) is 2

# protein stability index (variant: L17W ) is 1.92

# protein stability index (variant: K22L ) is 1.17
